Ref: paper PMC12606247

# Test Target: BmrA NBD (Bacillus subtilis, UniProt O06967, W413F)
# Sequence (O06967 331-589 W413F): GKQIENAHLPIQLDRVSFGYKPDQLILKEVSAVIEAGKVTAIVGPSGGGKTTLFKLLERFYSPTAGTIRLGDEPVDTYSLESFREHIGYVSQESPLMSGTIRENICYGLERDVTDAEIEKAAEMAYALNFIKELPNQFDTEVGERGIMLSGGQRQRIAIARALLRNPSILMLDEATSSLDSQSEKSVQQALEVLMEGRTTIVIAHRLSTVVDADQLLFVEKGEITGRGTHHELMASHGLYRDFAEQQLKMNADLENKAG
# Protocol: biochemical
Quantity Name: Kd (µM)
One number for each entry, in µM.

Task item: Need Kd, item Nc1ncnc2c1ncn2[C@@H]1O[C@H](COP(=O)(O)OP(=O)(O)O)[C@@H](O)[C@H]1O [ADP]
Reply: 221

---

# Test Target: BmrA NBD (Bacillus subtilis, UniProt O06967, R414A)
# Protocol: biochemical
Quantity Name: Kd (µM)
Numbers only, in µM.

Task item: Look up Kd: Nc1ncnc2c1ncn2[C@@H]1O[C@H](COP(=O)(O)OP(=O)(O)O)[C@@H](O)[C@H]1O
Reply: 575

---

# Test Target: BmrA NBD (Bacillus subtilis, UniProt O06967, K380A)
# Sequence (O06967 331-589 K380A): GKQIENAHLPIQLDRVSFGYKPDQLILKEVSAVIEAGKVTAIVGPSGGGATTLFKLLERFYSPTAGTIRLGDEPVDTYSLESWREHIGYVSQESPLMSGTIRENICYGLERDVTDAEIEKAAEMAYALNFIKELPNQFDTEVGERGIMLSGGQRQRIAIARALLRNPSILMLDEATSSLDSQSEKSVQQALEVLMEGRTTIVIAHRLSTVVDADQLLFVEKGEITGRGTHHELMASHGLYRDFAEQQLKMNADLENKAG
# Protocol: biochemical
Quantity Name: pKd
Numbers only, as −log10 of the molar value.

Task item: Look up pKd: Nc1ncnc2c1ncn2[C@@H]1O[C@H](COP(=O)(O)OP(=O)(O)O)[C@@H](O)[C@H]1O
Reply: 1.84

---

# Test Target: BmrA NBD (Bacillus subtilis, UniProt O06967, R414K)
# Sequence (O06967 331-589 R414K): as the sequence (O06967 331-589 W413F) above, with F83W, R84K counted along it
# Protocol: biochemical
Quantity Name: Kd (µM)
Numbers only, in µM.

Task item: Please report the recorded Kd for Nc1ncnc2c1ncn2[C@@H]1O[C@H](COP(=O)(O)OP(=O)(O)O)[C@@H](O)[C@H]1O [ADP] .
Reply: 266

---

# Test Target: BmrA NBD (Bacillus subtilis, UniProt O06967, R389M)
# Sequence (O06967 331-589 R389M): as the sequence (O06967 331-589 K380A) above, with A50K, R59M counted along it
# Protocol: biochemical
Quantity Name: Kd (µM)
Answers are plain numbers, in µM.

Task item: Give its Kd value. Item: Nc1ncnc2c1ncn2[C@@H]1O[C@H](COP(=O)(O)OP(=O)(O)O)[C@@H](O)[C@H]1O
Reply: 2890
